Protocol Text: amyloid nucleation score (Sup35N fusion, yeast selection) (log enrichment); library NNK2; higher = more nucleation; inactive = no reads after selection;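 note: zero at mode of non-aggregating sequences after 7 days selection at 30°C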
Each entry below carries its recorded amyloid nucleation score.

| Substance | amyloid nucleation score |
| --- | --- |
| HTHGGFSHRYGSRWGQYLSW | 5.53 |
| FDDRMCLCTIKQSK | -1 |
| AYYYVLRFRCLFTFYPQLTA | -0.428 |
| TNRIGFFLFCTAV | -0.049 |
| VFTTQEGTTTIPRNSMIEYA | -0.193 |
| FGDWWSI | -1.1 |
| YLGMLYFLVASHASDFATYW | 4.16 |
| MGLMNCSYSVKKQAAVIRTD | 0.06 |
| RTISMYEELVTELRNSVM | -0.283 |
| RHQCIIWDIISLPGIWLCRR | 1.13 |
| VCREMSYLQ | -0.809 |
| VWLRYYMCFNFVWSIVGVRI | 3.81 |
| TCVQLKNAIFQVSWYILLQG | -0.322 |
| SNRCLIIFLILC | 5.92 |
| NRWAYGVFWHSWFIKSHFG | 0.14 |

----------
Protocol Text: amyloid nucleation score (Sup35N fusion, yeast selection) (log enrichment); library NNK3; higher = more nucleation; inactive = no reads after selection
Measure Name: amyloid nucleation score

| Residues | Measured Result |
| --- | --- |
| KTQDKITGFLTVLWLRKLVP | inactive |
| ADLATYLTDLTERDAILSPP | 0.424 |
| HIFSKVSYNFEFPRNDCCRY | inactive |
| SMCRTPILQPIAVQNVSMGR | inactive |
| HCSCDGAIRYDILQSNHKE | inactive |
| EVVSLLTFMLASLLSISVVN | inactive |
| VWNMSASIKLQRMSAF | inactive |
| VTNQSFDQPESLVEM | inactive |
| SIRLIIKELDGNDTCIGVSG | inactive |
| TTCYTLFSTDENDNSKWICG | inactive |
| RRYIRSVNCKQWDYKFLMYS | inactive |
| LTKYVVFSIY | 1.16 |
| CGGLHQHNLMRRCRWMKPGE | inactive |
| GAQSSTEIAQFYKNGMTSNQ | inactive |
| LSMFTFCRYPGCQRLDRKPY | 1.23 |
| NFLVSIHVFFYCWLSMFTYW | inactive |

----------
Protocol Text: amyloid nucleation score (Sup35N fusion, yeast selection) (log enrichment); library NNK3; higher = more nucleation; inactive = no reads after selection
Measure Name: amyloid nucleation score

| Substance | Measure Name | Measured Result |
| --- | --- | --- |
| LIAYRVGHSGSAQYSSTCGW | amyloid nucleation score | 1.04 |
| GGSARCNRLCWYAVLDVLLL | amyloid nucleation score | inactive |
| MRLNGFLRRKGRVSNMWHTG | amyloid nucleation score | inactive |
| DRIDRDGRRIECQWGRGGVM | amyloid nucleation score | inactive |
| LVIACTGYVSLCR | amyloid nucleation score | inactive |
| NSVIGVFQLESSRRGLWDFI | amyloid nucleation score | 1.52 |
| CIFLDGVAPFWMGESRWRSG | amyloid nucleation score | inactive |
| ASVRTYVDTNHYNLAEILRL | amyloid nucleation score | inactive |
| ILVKIVSWVHLKRTVGTDQD | amyloid nucleation score | inactive |
| YKRRKTVNWHQDCTAIFGGN | amyloid nucleation score | inactive |
| VCFFGLYVLKDN | amyloid nucleation score | inactive |
| SLILALFSGISSDF | amyloid nucleation score | 0.122 |
| PYMWGFIKRWNRNCAGSFAL | amyloid nucleation score | inactive |
| YGYALVFTFYVGLNSVNRLR | amyloid nucleation score | 0.801 |
| VSPRRGHNVYLIVAARWCVA | amyloid nucleation score | inactive |
| WCTAAM | amyloid nucleation score | inactive |
| TFLNRIQWSKWILN | amyloid nucleation score | inactive |

----------
Protocol Text: amyloid nucleation score (Sup35N fusion, yeast selection) (log enrichment); library NNK2; higher = more nucleation; inactive = no reads after selection

| Substance | amyloid nucleation score |
| --- | --- |
| NSNTKTSPIISW | inactive |
| LKCRVITQSCIPSSINRLDG | -0.02 |
| VMRLFIGAGIGRAEL | 5.63 |
| FFMNNALFRGWG | 2.97 |
| NNRWVRKVSDYRVSC | 0.243 |
| GSPSRRGTVYRVWRVRWCNG | 0.307 |
| LNSQSLVAYMRAFVKDSPCR | 0.007 |
| REVQYWARYLSVMQLCFVSS | 2.19 |
| YSGTWLMVHKNLMVRKKLVP | 0.499 |
| DGVSHC | 0.02 |
| ESQWYVIDGAPFPTSGVLMS | 0.013 |
| DNILICMYGDVYMGCYCQAI | 8.63 |
| KIKYYEAIDGACNSGWFDLG | 2.92 |
| HKLTRRKWNCLRNWKLNLHQ | -0.953 |
| SARFCIWVYVSNGNNGMRCV | 3.52 |
| ISFWYHSKTS | 0.318 |
| GRCSSSLRICRSNWGAY | 0.45 |
| IIISYMFKHSWIKKGRHKLV | 0.597 |
| STYSPSSPHMLSYPFWARTP | -0.269 |
| GGVAETGERFWHSRLHG | 0.679 |
| SSGLTRFKYRRLRSIVFELG | inactive |
| PLDGEIRREHVLAYEE | -0.454 |
| YLNVNNSQDNESAYVFDKVV | 0.058 |
| YLFFKFWNAVCDLIHNTNLY | inactive |
| TIMNYTGCYFGPVGPDRDLG | 6.82 |
| FITNHK | inactive |
| CSWLLTH | -0.461 |
| SLGCSAFR | -1.62 |
| IPPSLCARKLRCYYVGAEG | 0.249 |
| NCFVLVRALTYCLGNSR | 5.18 |
| YGPGFILSQMMNWLWYSCSS | -0.765 |
| CLLNVTEAFTGGSMIGWHFR | 5.39 |
| NEVVFRVYK | 3.22 |
| LMYGKEWSMEQIVGTSTFGY | -1.36 |
| TSFFPIILKRVPSIKLGTRK | inactive |
| FGFNCMGWYRDCAVTSTWGA | 0.809 |
| FYKREVIFVLRLFFTVKQGR | -1.73 |
| YYMLVYWDV | 0.56 |
| RSTISYDSSAQYCGGWLGLW | -0.717 |
| ICCCFIWP | 7.04 |
| YLLFEWHYRHTYRCLVRVGA | -0.166 |
| SIFCGPDVVNTGPKLG | 0.751 |
| DVSVNRARFPREF | 1.1 |
| KCIAGMSWCEH | 0.252 |
| GKYSLTTCAR | 0.449 |
| THPEFSIPIGRHHYGG | -0.836 |
| YGVDLSRRMV | 0.043 |
| WCGFHGKATNHFMWIV | 1.45 |
| RILQSGLGV | 0.336 |
| NFAVLYYIFVHIWLQCSNSE | -0.969 |
| NVQALMN | 0.012 |
| GIGYRNVISSIMGFRFTGIR | 0.109 |
| ILWCFRSVMA | -0.327 |
| MINFDYYRYHCWCSNQHYTR | 1.19 |
| QYALLVY | inactive |
| TYSVGSSYCLRRSFGAGFFS | 0.728 |
| YYEYGL | -0.298 |
| LFDLDSESRMTPQGGLRNAT | -0.665 |
| FPFKCTSQDSFFFNFKWSRR | 3.25 |
| VFHRVEYSWGFRFYCCCLMC | 3.91 |
| CRMNDNSDWVRYAGHKAMAS | 1.2 |
| KSWHPRFQSDMKFHLFCLVV | -0.19 |
| CLVAQNVTVMVSGV | 5.94 |
| NNELDRISRTVCLWWVG | -0.239 |
| RDSTVFKIYCWPYNN | 6.49 |
| LQLCCAMVS | 0.883 |
| GLTSFMLDVLRGETAHRGEG | 0.972 |
| NFMSYIDKRWYQWLVSDRIS | 5.41 |
| STWDGWGFSWISFL | -0.635 |
| WTTIEFRIKGNFM | 1.59 |
| CNNQEMPTSGWMSCFSCALC | 1.48 |
| CGLKDTTKLAVDVTPQNM | 0.908 |
| FGWVINVNVRPTRFVTEGPV | 6.54 |
| YSFLHVIGANKFARACNNWS | -0.565 |

----------
Collected amyloid nucleation score values appear next to each entry.
Protocol Text: amyloid nucleation score (Sup35N fusion, yeast selection) (log enrichment); library NNK3; higher = more nucleation; inactive = no reads after selection

| Substance | amyloid nucleation score |
| --- | --- |
| VCSFCCFGTVRSL | 2.1 |
| HFLFRVRRGTWK | 0.396 |
| GYTRVRVGCYVTVRKFWSMT | -0.14 |
| GLYSDNSVYTLQMFIEGAHH | 0.4 |

Recorded values, source the supplement of paper PMC12042874.
